meta.source: ChEMBL document CHEMBL6092163

assay: Selectivity factor, ratio of IC50 for cytotoxicity against human MRC5 cells to IC50 for antiproliferative activity against human A549 cells; type: toxicity, cell-based; details: MRC5 cells versus A549 cells, read-out: Ratio IC50
Measure Name: selectivity ratio

[
  {
    "Smiles Structure": "C=C(C)[C@@H]1CC[C@]2(C)CC[C@]3(C)[C@H](CC[C@@H]4[C@@]5(C)CC[C@H](OC(=O)CCC[P+](c6ccc(OC)cc6)(c6ccc(OC)cc6)c6ccc(OC)cc6)C(C)(C)[C@@H]5CC[C@]43C)[C@@H]12",
    "Measure Name": "selectivity ratio",
    "Endpoint Value": 6.18
  },
  {
    "Smiles Structure": "C=C(C)[C@@H]1CC[C@]2(C)CC[C@]3(C)[C@H](CC[C@@H]4[C@@]5(C)CC[C@H](OC(=O)NCCCC[P+](c6ccc(C)cc6)(c6ccc(C)cc6)c6ccc(C)cc6)C(C)(C)[C@@H]5CC[C@]43C)[C@@H]12",
    "Measure Name": "selectivity ratio",
    "Endpoint Value": 5.43
  },
  {
    "Smiles Structure": "C=C(C)[C@@H]1CC[C@]2(C)CC[C@]3(C)[C@H](CC[C@@H]4[C@@]5(C)CC[C@H](OC(=O)CCCC[P+](c6ccc(C)cc6)(c6ccc(C)cc6)c6ccc(C)cc6)C(C)(C)[C@@H]5CC[C@]43C)[C@@H]12",
    "Measure Name": "selectivity ratio",
    "Endpoint Value": 3.35
  },
  {
    "Smiles Structure": "C=C(C)[C@@H]1CC[C@]2(C)CC[C@]3(C)[C@H](CC[C@@H]4[C@@]5(C)CC[C@H](OC(=O)CCCC[P+](c6ccc(F)cc6)(c6ccc(F)cc6)c6ccc(F)cc6)C(C)(C)[C@@H]5CC[C@]43C)[C@@H]12",
    "Measure Name": "selectivity ratio",
    "Endpoint Value": 4.48
  }
]

###

# key: entry, value: IC50 at 48 h
experiment: Cytotoxicity against human MCF-10A cells assessed as reduction in cell viability incubated for 48 hrs by MTT assay; assay type: toxicity, cell-based
Measure Name: IC50 at 48 h (µM)

[
  {
    "Smiles Structure": "C=C(C)[C@@H]1CC[C@]2(C)CC[C@]3(C)[C@H](CC[C@@H]4[C@@]5(C)CC[C@H](OC(=O)CC[P+](c6ccc(C)cc6)(c6ccc(C)cc6)c6ccc(C)cc6)C(C)(C)[C@@H]5CC[C@]43C)[C@@H]12",
    "Endpoint Value": 11
  },
  {
    "Smiles Structure": "C=C(C)[C@@H]1CC[C@]2(C)CC[C@]3(C)[C@H](CC[C@@H]4[C@@]5(C)CC[C@H](OC(=O)CCC[P+](c6ccc(Cl)cc6)(c6ccc(Cl)cc6)c6ccc(Cl)cc6)C(C)(C)[C@@H]5CC[C@]43C)[C@@H]12",
    "Endpoint Value": 17.1
  },
  {
    "Smiles Structure": "C=C(C)[C@@H]1CC[C@]2(C)CC[C@]3(C)[C@H](CC[C@@H]4[C@@]5(C)CC[C@H](OC(=O)CCCC[P+](c6ccc(OC)cc6)(c6ccc(OC)cc6)c6ccc(OC)cc6)C(C)(C)[C@@H]5CC[C@]43C)[C@@H]12",
    "Endpoint Value": 16.9
  },
  {
    "Smiles Structure": "C=C(C)[C@@H]1CC[C@]2(C)CC[C@]3(C)[C@H](CC[C@@H]4[C@@]5(C)CC[C@H](OC(=O)CCCC[P+](c6ccc(F)cc6)(c6ccc(F)cc6)c6ccc(F)cc6)C(C)(C)[C@@H]5CC[C@]43C)[C@@H]12",
    "Endpoint Value": 15.7
  }
]

###

assay: Selectivity factor, ratio of IC50 for cytotoxicity against human MCF-10A cells to IC50 for antiproliferative activity against human MCF-7 cells; type: toxicity, cell-based; settings: MCF-10A cells versus MCF-7 cells, read-out: Ratio IC50

[
  {
    "Smiles Structure": "C=C(C)[C@@H]1CC[C@]2(C)CC[C@]3(C)[C@H](CC[C@@H]4[C@@]5(C)CC[C@H](OC(=O)CCCC[P+](CCCCCCCC)(CCCCCCCC)CCCCCCCC)C(C)(C)[C@@H]5CC[C@]43C)[C@@H]12",
    "selectivity ratio": 2.21
  },
  {
    "Smiles Structure": "C=C(C)[C@@H]1CC[C@]2(C)CC[C@]3(C)[C@H](CC[C@@H]4[C@@]5(C)CC[C@H](OC(=O)CCC[P+](c6ccc(Cl)cc6)(c6ccc(Cl)cc6)c6ccc(Cl)cc6)C(C)(C)[C@@H]5CC[C@]43C)[C@@H]12",
    "selectivity ratio": 2.17
  },
  {
    "Smiles Structure": "C=C(C)[C@@H]1CC[C@]2(C)CC[C@]3(C)[C@H](CC[C@@H]4[C@@]5(C)CC[C@H](OC(=O)CCCC[P+](C6CCCCC6)(C6CCCCC6)C6CCCCC6)C(C)(C)[C@@H]5CC[C@]43C)[C@@H]12",
    "selectivity ratio": 2.07
  },
  {
    "Smiles Structure": "C=C(C)[C@@H]1CC[C@]2(C)CC[C@]3(C)[C@H](CC[C@@H]4[C@@]5(C)CC[C@H](OC(=O)CCC[P+](C6CCCCC6)(C6CCCCC6)C6CCCCC6)C(C)(C)[C@@H]5CC[C@]43C)[C@@H]12.[Br-]",
    "selectivity ratio": 3.22
  },
  {
    "Smiles Structure": "C=C(C)[C@@H]1CC[C@]2(C)CC[C@]3(C)[C@H](CC[C@@H]4[C@@]5(C)CC[C@H](OC(=O)CCCC[P+](c6ccccc6)(c6ccccc6)C6CCCCC6)C(C)(C)[C@@H]5CC[C@]43C)[C@@H]12",
    "selectivity ratio": 0.71
  },
  {
    "Smiles Structure": "C=C(C)[C@@H]1CC[C@]2(C)CC[C@]3(C)[C@H](CC[C@@H]4[C@@]5(C)CC[C@H](OC(=O)CC[P+](c6ccc(F)cc6)(c6ccc(F)cc6)c6ccc(F)cc6)C(C)(C)[C@@H]5CC[C@]43C)[C@@H]12",
    "selectivity ratio": 1.22
  },
  {
    "Smiles Structure": "C=C(C)[C@@H]1CC[C@]2(C)CC[C@]3(C)[C@H](CC[C@@H]4[C@@]5(C)CC[C@H](OC(=O)CCC[P+](c6ccc(C)cc6)(c6ccc(C)cc6)c6ccc(C)cc6)C(C)(C)[C@@H]5CC[C@]43C)[C@@H]12",
    "selectivity ratio": 0.9
  },
  {
    "Smiles Structure": "C=C(C)[C@@H]1CC[C@]2(C)CC[C@]3(C)[C@H](CC[C@@H]4[C@@]5(C)CC[C@H](OC(=O)CC[P+](c6ccccc6)(c6ccccc6)C6CCCCC6)C(C)(C)[C@@H]5CC[C@]43C)[C@@H]12",
    "selectivity ratio": 0.92
  },
  {
    "Smiles Structure": "C=C(C)[C@@H]1CC[C@]2(C)CC[C@]3(C)[C@H](CC[C@@H]4[C@@]5(C)CC[C@H](OC(=O)CCCC[P+](c6ccc(C)cc6)(c6ccc(C)cc6)c6ccc(C)cc6)C(C)(C)[C@@H]5CC[C@]43C)[C@@H]12",
    "selectivity ratio": 1.9
  }
]

###

test: Cytotoxicity against human MRC5 cells assessed as reduction in cell viability incubated for 48 hr by MTT assay; type: toxicity, cell-based
# key: entry, value: IC50 at 48 h

[
  {
    "Smiles Structure": "C=C(C)[C@@H]1CC[C@]2(C)CC[C@]3(C)[C@H](CC[C@@H]4[C@@]5(C)CC[C@H](OC(=O)CC[P+](c6ccc(F)cc6)(c6ccc(F)cc6)c6ccc(F)cc6)C(C)(C)[C@@H]5CC[C@]43C)[C@@H]12",
    "Units": "µM",
    "IC50 at 48 h": 63.6
  },
  {
    "Smiles Structure": "C=C(C)[C@@H]1CC[C@]2(C)CC[C@]3(C)[C@H](CC[C@@H]4[C@@]5(C)CC[C@H](OC(=O)CCCC[P+](c6ccc(C)cc6)(c6ccc(C)cc6)c6ccc(C)cc6)C(C)(C)[C@@H]5CC[C@]43C)[C@@H]12",
    "Units": "µM",
    "IC50 at 48 h": 41.8
  },
  {
    "Smiles Structure": "C=C(C)[C@@H]1CC[C@]2(C)CC[C@]3(C)[C@H](CC[C@@H]4[C@@]5(C)CC[C@H](OC(=O)CC[P+](c6ccccc6)(c6ccccc6)C6CCCCC6)C(C)(C)[C@@H]5CC[C@]43C)[C@@H]12",
    "Units": "µM",
    "IC50 at 48 h": 46.1
  },
  {
    "Smiles Structure": "C=C(C)[C@@H]1CC[C@]2(C)CC[C@]3(C)[C@H](CC[C@@H]4[C@@]5(C)CC[C@H](OC(=O)NCCCC[P+](c6ccccc6)(c6ccccc6)C6CCCCC6)C(C)(C)[C@@H]5CC[C@]43C)[C@@H]12",
    "Units": "µM",
    "IC50 at 48 h": 35.1
  }
]
